This collection of values is drawn from BigSolDB 2.1.

Details: in propionic acid, 288.15 K
Readout Kind: solubility (mole fraction)
Numbers only.

Exam item: Quick check: solubility (mole fraction) of Nc1nc(N)nc(NC2CC2)n1 ?
Marked response: 0.00697

---

Conditions: in isopentanol, 293.15 K
Readout Kind: solubility (mole fraction)
Numbers only.

Exam item: Quick check: solubility (mole fraction) of Nc1nc(N)nc(NC2CC2)n1 ?
Marked response: 0.000725

---

Details: in isobutanol, 283.15 K
Readout Kind: solubility (mole fraction)
Answers are plain numbers.

Exam item: Quick check: solubility (mole fraction) of Nc1nc(N)nc(NC2CC2)n1 ?
Marked response: 0.000396

---

Conditions: in acetic acid, 323.15 K
Readout Kind: solubility (mole fraction)
Give bare numbers.

Exam item: Quick check: solubility (mole fraction) of Nc1nc(N)nc(NC2CC2)n1 ?
Marked response: 0.0395
